# TESTED TARGET: Feline_OSMR_hlgG1_Fc (feline)
# Sequence (chain, as listed by the source limits assumed, form in doubt): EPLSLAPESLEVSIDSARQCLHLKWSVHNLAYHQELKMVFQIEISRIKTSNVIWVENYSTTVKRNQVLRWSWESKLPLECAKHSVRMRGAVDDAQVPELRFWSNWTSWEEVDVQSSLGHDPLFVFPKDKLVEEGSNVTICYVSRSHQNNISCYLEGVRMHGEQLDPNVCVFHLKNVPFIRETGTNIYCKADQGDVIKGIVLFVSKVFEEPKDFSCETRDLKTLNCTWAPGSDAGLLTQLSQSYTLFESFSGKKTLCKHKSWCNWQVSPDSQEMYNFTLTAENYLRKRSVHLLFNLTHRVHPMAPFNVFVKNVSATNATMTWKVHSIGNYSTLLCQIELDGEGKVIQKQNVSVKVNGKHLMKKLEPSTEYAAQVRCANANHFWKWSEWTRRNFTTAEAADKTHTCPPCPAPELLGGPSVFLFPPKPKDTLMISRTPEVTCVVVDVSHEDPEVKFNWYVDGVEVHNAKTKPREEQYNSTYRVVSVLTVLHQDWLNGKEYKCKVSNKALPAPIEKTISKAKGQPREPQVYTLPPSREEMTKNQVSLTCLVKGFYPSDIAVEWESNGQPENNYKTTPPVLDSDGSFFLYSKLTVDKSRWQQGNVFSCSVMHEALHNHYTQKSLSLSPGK
# PROTOCOL: SPR Biacore
Entries and their log10 of koff
MEASUREMENT LABEL: log10 of koff (log10 of the value in s⁻¹)

* Mu_09E09_VL (SEQ ID NO: 37)_L94A (antibody, V domains shown) VH: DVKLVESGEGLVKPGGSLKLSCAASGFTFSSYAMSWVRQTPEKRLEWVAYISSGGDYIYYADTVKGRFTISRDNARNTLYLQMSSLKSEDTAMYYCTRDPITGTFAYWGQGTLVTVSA VL: DLQMTQTTSSLSASLGDRVTISCRASQDINNYLNWYQQKPDGTVKLLIYYTSTLHSGVPSRFSGSGSGTDYSLTISNLEQEDIATYFCQQGNTAPWTFGGGTKLEIKR | -2.78
* Mu_19F07_VL (SEQ ID NO: 49)_L50A (antibody, V domains shown) VH: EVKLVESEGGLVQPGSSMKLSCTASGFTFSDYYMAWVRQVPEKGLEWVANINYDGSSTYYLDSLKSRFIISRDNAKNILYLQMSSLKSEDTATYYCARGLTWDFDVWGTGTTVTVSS VL: DIVMTQSHKFMSPSVGDRVSITCKASQDVDTAVAWYQQKPGQSPKLLIYAASTRHTGVPDRFTGSGSGTDFTLTISNVQSEDLADYFCQQYSRFPLTFGAGTKLELKR | -6.23
* Mu_02D09_VL (SEQ ID NO: 33)_Q27A (antibody, V domains shown) VH: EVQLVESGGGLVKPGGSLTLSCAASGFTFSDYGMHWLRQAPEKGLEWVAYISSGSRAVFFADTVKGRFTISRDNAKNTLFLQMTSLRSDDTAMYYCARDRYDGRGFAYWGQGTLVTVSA VL: DIVLTQSPATLSVTPGDSVSLSCRASASISNNLHWYQQTSHESPRLLITYASQSISGIPSRFSGSGSGTDFTLSINSVETEDFGMYFCQQSNSWPLTFGAGTKLELKR | -2.96
* Mu_02D09_VH (SEQ ID NO: 31)_D99A (antibody, V domains shown) VH: EVQLVESGGGLVKPGGSLTLSCAASGFTFSDYGMHWLRQAPEKGLEWVAYISSGSRAVFFADTVKGRFTISRDNAKNTLFLQMTSLRSDDTAMYYCARARYDGRGFAYWGQGTLVTVSA VL: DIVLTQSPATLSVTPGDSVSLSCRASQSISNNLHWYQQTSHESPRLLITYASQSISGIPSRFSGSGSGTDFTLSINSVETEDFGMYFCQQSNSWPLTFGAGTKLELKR | -3.33
* Mu_09E09_VL (SEQ ID NO: 37)_N34A (antibody, V domains shown) VH: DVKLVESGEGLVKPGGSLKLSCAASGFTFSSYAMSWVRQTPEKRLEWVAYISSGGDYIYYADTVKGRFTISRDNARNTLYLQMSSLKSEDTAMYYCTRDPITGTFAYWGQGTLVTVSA VL: DLQMTQTTSSLSASLGDRVTISCRASQDINNYLAWYQQKPDGTVKLLIYYTSTLHSGVPSRFSGSGSGTDYSLTISNLEQEDIATYFCQQGNTLPWTFGGGTKLEIKR | -2.79
